Each record here notes measured normalized growth.
experiment: chemical genetic growth profiling, strain panel (AID 1159580);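 also: tested at 20 µM; growth read once vehicle control cultures reached saturation at 30 °C; 1 = growth at the plate median or of vehicle wells; lower values mean less growth of the strain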; details: S. cerevisiae deletion strains, growth OD, locus YLR371W, strain rom2, active compounds read low
Among all 5,500 compounds or so, about 2,000 (36%) were called active. About 18% were inconclusive and are not listed. This is one part of the list.
Respond numerically, and do not add a unit to the figure.

Field: example entries. Status: answers known.
-- ask Item under review: O=C(Oc1cc(O)cc2c1C[C@@H](OC(=O)c1cc(O)c(O)c(O)c1)[C@@H](c1cc(O)c(O)c(O)c1)O2)c1cc(O)c(O)c(O)c1 . Reported normalized growth?
-- reply 0.602

-- ask Item under review: C#CCN(C)Cc1ccccc1 . Reported normalized growth?
-- reply 1.02

-- ask Item under review: CCCCCCCCC(=O)NCc1ccc(O)c(OC)c1 . Reported normalized growth?
-- reply 0.985

-- ask Item under review: CN(C)CCOC(c1ccc(Cl)cc1)c1ccccn1 (stereo unspecified) . Reported normalized growth?
-- reply 1

-- ask Item under review: COc1cc([C@@H]2c3cc4c(cc3C(OC3O[C@@H]5COC(C)O[C@H]5[C@H](O)[C@H]3O)C3COC(=O)[C@@H]32)OCO4)cc(OC)c1O (stereo partly specified) . Reported normalized growth?
-- reply 0.979

Next:
-- ask Item under review: CCN1CCCC(OC(=O)C(c2ccccc2)c2ccccc2)C1 (stereo unspecified) . Reported normalized growth?
-- reply 1.01

---

Each record here notes measured normalized growth.
test: chemical genetic growth profiling, strain panel (AID 1159580); conditions: S. cerevisiae deletion strains, growth OD, locus YJL164C, strain tpk1, active compounds read low
Out of some 5,500 compounds screened, about 2,000 (36%) were called active. Not shown: some 18% with an inconclusive outcome. The list shows a part of the results.

Field: example entries. Status: answers known.
-- ask Item under review: CCN1CCCC(OC(=O)C(c2ccccc2)c2ccccc2)C1 (configuration not stated) . Reported normalized growth?
-- reply 1 (inactive)

-- ask Item under review: O=C(O)CCCc1ccc(N(CCCl)CCCl)cc1 . Reported normalized growth?
-- reply 0.988 (inactive)

Next:
-- ask Item under review: C[C@H]1COc2c(N3CCN(C)CC3)c(F)cc3c(=O)c(C(=O)O)cn1c23 . Reported normalized growth?
-- reply 1.01 (inactive)

-- ask Item under review: O=C(/C=C/c1ccc(O)c(O)c1)OCCc1ccccc1 . Reported normalized growth?
-- reply 0.766 (active)

-- ask Item under review: COc1ccc2c(c1)OC/C(=C/c1ccc(OC)c(OC)c1)C2=O . Reported normalized growth?
-- reply 0.852 (active)

-- ask Item under review: O=C(Oc1cc(OC(=O)c2ccccc2)c2c(c1)O[C@H](c1ccc(OC(=O)c3ccccc3)c(OC(=O)c3ccccc3)c1)[C@@H](OC(=O)c1ccccc1)C2)c1ccccc1 . Reported normalized growth?
-- reply 0.974 (inactive)

---

Each record here notes measured normalized growth.
experiment: chemical genetic growth profiling, strain panel (AID 1159580); conditions: S. cerevisiae deletion strains, growth OD, locus YMR223W, strain ubp8, active compounds read low
The campaign covered roughly 5,500 compounds. About 2,000 (36%) were called active. Not shown: some 18% with an inconclusive outcome. The list shows a part of the results.
Respond numerically, and do not add a unit to the figure.

Field: example entries. Status: answers known.
-- ask Item under review: Cc1ccc(S(=O)(=O)NC(=O)NN2CCCCCC2)cc1 . Reported normalized growth?
-- reply 0.97

-- ask Item under review: CCCCNC(=O)NS(=O)(=O)c1ccc(C)cc1 . Reported normalized growth?
-- reply 1.01

-- ask Item under review: CC(=O)S[C@@H]1CC2=CC(=O)CC[C@]2(C)[C@H]2CC[C@@]3(C)[C@@H](CC[C@@]34CCC(=O)O4)C12 (stereo partly drawn) . Reported normalized growth?
-- reply 1.03

-- ask Item under review: COc1ccc(-c2coc3cc(OC)ccc3c2=O)cc1 . Reported normalized growth?
-- reply 0.911

-- ask Item under review: COc1cc([C@@H]2c3cc4c(cc3C(OC3O[C@@H]5COC(C)O[C@H]5[C@H](O)[C@H]3O)C3COC(=O)[C@@H]32)OCO4)cc(OC)c1O (stereo partly drawn) . Reported normalized growth?
-- reply 1

Next:
-- ask Item under review: CN1C2CCC1CC(OC(c1ccccc1)c1ccccc1)C2 (stereo not drawn) . Reported normalized growth?
-- reply 0.948

-- ask Item under review: NS(=O)(=O)c1cc2c(cc1Cl)NC=NS2(=O)=O . Reported normalized growth?
-- reply 1

-- ask Item under review: O=C(O)/C=C/c1ccc(O)c(O)c1 . Reported normalized growth?
-- reply 0.997

-- ask Item under review: CN1C2CCC1CC(OC(c1ccccc1)c1ccccc1N)C2 (stereo not drawn) . Reported normalized growth?
-- reply 1.01

-- ask Item under review: CC[C@@H](C(=O)C(C)[C@@H](O)[C@H](C)CCc1ccc(C)c(O)c1C(=O)O)C1OC(CC)(C2CC[C@](O)(CC)[C@H](C)O2)C[C@@H]1C (stereo partly drawn) . Reported normalized growth?
-- reply 0.996

-- ask Item under review: COc1ccc(-c2coc3cc(O)ccc3c2=O)c(OC)c1 . Reported normalized growth?
-- reply 1.01

-- ask Item under review: COc1ccccc1-c1coc2cc(O)ccc2c1=O . Reported normalized growth?
-- reply 0.999

-- ask Item under review: CC1(C)S[C@@H]2[C@H](NC(=O)[C@H](N)c3ccccc3)C(=O)N2[C@H]1C(=O)O . Reported normalized growth?
-- reply 1.01

---

test: chemical genetic growth profiling, strain panel (AID 1159580);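 also: tested at 20 µM; growth read once vehicle control cultures reached saturation at 30 °C; 1 = growth at the plate median or of vehicle wells; lower values mean less growth of the strain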; conditions: S. cerevisiae deletion strains, growth OD, locus YLR320W, strain mms22, active compounds read low
The campaign covered roughly 5,500 compounds. About 2,000 (36%) were called active. Roughly 18% stayed inconclusive and do not appear here. The list shows a part of the results.
Each record here notes measured normalized growth.
Respond numerically, and do not add a unit to the figure.

-- ask Item under review: O=C1NCC2(CCN(CCc3ccccc3)CC2)O1 . Reported normalized growth?
-- reply 1.02

-- ask Item under review: N=c1ccn2c(n1)OC1C(O)C(CO)OC12 (stereo unspecified) . Reported normalized growth?
-- reply 1.01

-- ask Item under review: CN1C2C[C@H](OC(=O)[C@H](CO)c3ccccc3)C[C@H]1[C@@H](O)C2 . Reported normalized growth?
-- reply 1.04

-- ask Item under review: C[C@]12CCC(=O)C=C1C=CC1C2CC[C@@]2(C)C1CC[C@@]2(O)CCC(=O)O (stereo partly specified) . Reported normalized growth?
-- reply 1.01

-- ask Item under review: CN(C)CCCC1(c2ccc(F)cc2)OCc2cc(C#N)ccc21 (stereo unspecified) . Reported normalized growth?
-- reply 0.993

Next compound, please.
-- ask Item under review: CN1CCC(OC(c2ccccc2)c2ccccc2)CC1 . Reported normalized growth?
-- reply 1.05

---

assay: chemical genetic growth profiling, strain panel (AID 1159580);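 also: tested at 20 µM; growth read once vehicle control cultures reached saturation at 30 °C; 1 = growth at the plate median or of vehicle wells; lower values mean less growth of the strain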; conditions: S. cerevisiae deletion strains, growth OD, locus YMR307W, strain GAS1, active compounds read low
Hit rate of the full screen: of about 5,500 compounds, about 2,000 (36%) were called active. Not shown: some 18% with an inconclusive outcome. Some of the results follow.
Each record here notes measured normalized growth.
Respond numerically, and do not add a unit to the figure.

Field: example entries. Status: answers known.
-- ask Item under review: C[C@]12CCC(=O)C=C1C=CC1C2CC[C@@]2(C)C1CC[C@@]2(O)CCC(=O)O (stereo partly drawn) . Reported normalized growth?
-- reply 1.01

-- ask Item under review: NCCS(=O)(=O)O . Reported normalized growth?
-- reply 1

-- ask Item under review: O=[N+]([O-])c1ccc(S(=O)(=O)N2CCCCC2)cc1 . Reported normalized growth?
-- reply 0.943

-- ask Item under review: Cc1nn(C)c(C)c1[N+](=O)[O-] . Reported normalized growth?
-- reply 0.994

-- ask Item under review: COc1cc(CNC(=O)CCCC/C=C/C(C)C)ccc1O . Reported normalized growth?
-- reply 1.04

Next compound, please.
-- ask Item under review: CCC(C)C(=O)O[C@@H]1C[C@@]2(C)[C@H](c3ccoc3)OC(=O)CC23OC2(C)O[C@]14[C@]1(C)[C@@H](CC(=O)OC)C5(C)CC1(O)[C@](O)(C5OC(=O)C1(C)OC1C)[C@@H](OC(C)=O)[C@]34O2 (stereo partly drawn) . Reported normalized growth?
-- reply 0.925

---

assay: chemical genetic growth profiling, strain panel (AID 1159580);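 also: tested at 20 µM; growth read once vehicle control cultures reached saturation at 30 °C; 1 = growth at the plate median or of vehicle wells; lower values mean less growth of the strain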; details: S. cerevisiae deletion strains, growth OD, locus YOL147C, strain pex11
Hit rate of the full screen: of about 5,500 compounds, about 2,000 (36%) were called active. Inconclusive results (about 18%) are left out. Cut-off read from the data, not from the text of the source: active = normalized growth mostly below about 0.91 (no sharp cut-off); inconclusive = no clear call, values can overlap the other calls; inactive = mostly above about 0.92. The list shows a part of the results.
Answer with one of the outcomes active, inactive

See these solved cases before continuing.
-- ask I would be grateful if you could indicate the recorded call for CCC[C@H](N[C@@H](C)C(=O)N1[C@H](C(=O)O)C[C@@H]2CCCC[C@@H]21)C(=O)OCC .
-- reply inactive

-- ask I would be grateful if you could indicate the recorded call for CN(C)CCOC(c1ccc(Cl)cc1)c1ccccn1 (centres undefined) .
-- reply inactive

-- ask I would be grateful if you could indicate the recorded call for O=C(Oc1cc(OC(=O)c2ccccc2)c2c(c1)O[C@H](c1ccc(OC(=O)c3ccccc3)c(OC(=O)c3ccccc3)c1)[C@@H](OC(=O)c1ccccc1)C2)c1ccccc1 .
-- reply inactive

-- ask I would be grateful if you could indicate the recorded call for COc1ccc2c(c1)OC/C(=C\c1ccc(OC)c(O)c1)C2=O .
-- reply active

-- ask I would be grateful if you could indicate the recorded call for COC(=O)[C@@H]1OC(=O)C2OC23[C@@]1(C)CCC1[C@]2(C)C(C[C@H](O)[C@]13C)C(C)(C)[C@H](OC(C)=O)C[C@@H]2OC(C)=O (some centres undefined) .
-- reply inactive

Next:
-- ask I would be grateful if you could indicate the recorded call for C[C@@H]1CC(Cl)CC[C@H]1C(=O)OC(C)(C)C (some centres undefined) .
-- reply inactive

-- ask I would be grateful if you could indicate the recorded call for OCC(O)CN1CCN(c2ccccc2)CC1 (centres undefined) .
-- reply inactive

-- ask I would be grateful if you could indicate the recorded call for Oc1cc(O)c2c(c1)O[C@H](c1ccc(O)c(O)c1)[C@@H](O)C2 .
-- reply inactive

-- ask I would be grateful if you could indicate the recorded call for C#CCN(C)Cc1ccccc1 .
-- reply inactive
